Procedure details: Non-human primate pharmacokinetic studies: plasma ALLO after oral ALLO or prodrug, and after IV ALLO
Assay type: in vivo, male cynomolgus monkeys
Condition summary: male, cynomolgus monkey, plasma, 0.5 mg/kg; cynomolgus monkeys; IV bolus ALLO; normalized to 1.5 mg/kg; mean±SD (n=6)
Experimental endpoint: Cmax (µM)
Your answer should be a plain number; it is taken to be in µM.

**Query** Give me measured Cmax, please, for this molecule: CC(=O)[C@H]1CC[C@H]2[C@@H]3CC[C@H]4C[C@H](O)CC[C@]4(C)[C@H]3CC[C@]12C [Allopregnanolone, 5α-pregnan-3α-ol-20-one]
**Result** 4.45

* * *

Procedure details: Non-human primate pharmacokinetic studies: plasma ALLO after oral ALLO or prodrug, and after IV ALLO
Format: in vivo, male cynomolgus monkeys
Condition summary: male, cynomolgus monkey, plasma, 0.5 mg/kg; cynomolgus monkeys; IV ALLO; read-out: Cl (clearance)
Experimental endpoint: clearance

**Query** Give me measured clearance, please, for this compound: `CC(=O)[C@H]1CC[C@H]2[C@@H]3CC[C@H]4C[C@H](O)CC[C@]4(C)[C@H]3CC[C@]12C`
**Result** 42.2 mL/min/kg

* * *

Procedure details: Non-human primate pharmacokinetic studies: plasma ALLO after oral ALLO or prodrug, and after IV ALLO
Assay type: in vivo, male cynomolgus monkeys
Condition summary: male, cynomolgus monkey, plasma, iv, 0.5 mg/kg, cynomolgus monkeys; IV ALLO; read-out: VSS (volume of distribution during the steady state phase)
Experimental endpoint: Vd (L/kg)
Your answer should be a plain number; it is taken to be in L/kg.

**Query** Give me measured Vd, please, for this molecule: `CC(=O)[C@H]1CC[C@H]2[C@@H]3CC[C@H]4C[C@H](O)CC[C@]4(C)[C@H]3CC[C@]12C`
**Result** 2.6

* * *

Procedure details: Non-human primate pharmacokinetic studies: plasma ALLO after oral ALLO or prodrug, and after IV ALLO
Type: in vivo, male cynomolgus monkeys
Condition summary: male, cynomolgus monkey, plasma, 0.5 mg/kg; cynomolgus monkeys; IV bolus ALLO; read-out: T1/2 (terminal phase half-life) (converted)
Experimental endpoint: half-life (h)
Your answer should be a plain number; it is taken to be in h.

**Query** Give me measured half-life, please, for this compound: `CC(=O)[C@H]1CC[C@H]2[C@@H]3CC[C@H]4C[C@H](O)CC[C@]4(C)[C@H]3CC[C@]12C`
**Result** 7.4

* * *

Procedure details: Non-human primate pharmacokinetic studies: plasma ALLO after oral ALLO or prodrug, and after IV ALLO
Type: in vivo, male cynomolgus monkeys
Condition summary: male, cynomolgus monkey, plasma, 0.5 mg/kg; cynomolgus monkeys; IV bolus ALLO; normalized to 1.5 mg/kg
Experimental endpoint: AUC(0-inf) (µM·h)
Your answer should be a plain number; it is taken to be in µM·h.

**Query** Give me measured AUC(0-inf), please, for this molecule: `CC(=O)[C@H]1CC[C@H]2[C@@H]3CC[C@H]4C[C@H](O)CC[C@]4(C)[C@H]3CC[C@]12C`
**Result** 1.93

* * *

Procedure details: Dog pharmacokinetic studies: plasma ALLO after oral ALLO or prodrug, and after IV ALLO
Type: in vivo, male beagle dogs
Condition summary: male, dog, plasma, 0.5 mg/kg; beagle dogs; IV ALLO; read-out: Cl (clearance)
Experimental endpoint: clearance (mL/min/kg)
Your answer should be a plain number; it is taken to be in mL/min/kg.

**Query** Give me measured clearance, please, for this compound: `CC(=O)[C@H]1CC[C@H]2[C@@H]3CC[C@H]4C[C@H](O)CC[C@]4(C)[C@H]3CC[C@]12C`
**Result** 160
